# credit: ChEMBL document CHEMBL1201862

Tested on: TK-10
assay: NCI tumour cell line growth inhibition, 48 h
Activity calls are given as the source filed them. Cut-off read from the data, not from the text of the source: active = GI50 up to about 1.1 µM and inactive = higher.
valueKind: GI50

# example entries with known answers
>>> recordedmeasurement("N#Cc1c(N)c(-c2ccc(Cl)cc2)c(F)c2ccccc12")
"> 100 µM (inactive)"
>>> recordedmeasurement("Cc1ccc2c(c1C)C(=O)/C(=C/c1ccccc1C(=O)O)C2")
"> 100 µM (inactive)"
>>> recordedmeasurement("COc1ccc(OC)c(NS(=O)(=O)c2ccc3nc(C)n(NS(=O)(=O)c4cc(OC)ccc4OC)c(=O)c3c2)c1")
"> 100 µM (inactive)"
>>> recordedmeasurement("COC(=O)C1=C(C)N(NC(=O)Nc2ccccc2)C2(N)N(NC(=O)Nc3ccccc3)C(C)=C(C(=O)OC)C12C(=O)OC (stereo not given)")
"69.3 µM (inactive)"

Asked: GET /values?readout=GI50&item= COc1ccc(NC(=O)C(C#N)=C(SC)SC)cc1
Given back: > 100 µM (inactive)

* * *

Test system: KM-20L2
assay: NCI tumour cell line growth inhibition, 48 h
Calls of active or inactive are those of the source. Rule as the data show it: active = GI50 up to about 1.1 µM and inactive = higher.
valueKind: GI50

# example entries with known answers
>>> recordedmeasurement("Nc1ccn(C2(CO)C=C(CO)C(O)C2O)c(=O)n1 (stereo unspecified)")
"> 25.8 µM (inactive)"
>>> recordedmeasurement("CCN(N=O)C1C2(CCCC2)NC(=O)C12CCCC2 (stereo unspecified)")
"> 100 µM (inactive)"
>>> recordedmeasurement("CC1CCC(=O)C(C(O)CC2CC(=O)N(c3ccccc3)C(=O)C2)C1 (stereo unspecified)")
"> 100 µM (inactive)"
>>> recordedmeasurement("CC1OC(n2cc(F)c(=O)[nH]c2=O)CCC1O (stereo unspecified)")
"95.1 µM (inactive)"
>>> recordedmeasurement("Cc1nc2ccc(C(F)(F)F)cc2nc1Nc1ccc(Cl)c(Cl)c1")
"4.11 µM (inactive)"

Asked: GET /values?readout=GI50&item= O=C(O)c1ccccc1/N=N/c1ccc2oc(=O)c(C(=O)Nc3ccccc3)cc2c1
Given back: 24.8 µM (inactive)

* * *

Tested on: HCT-116
assay: NCI tumour cell line growth inhibition, 48 h
The source made the active and inactive calls. Rule as the data show it: active = GI50 up to about 1.1 µM and inactive = higher.
valueKind: GI50

# example entries with known answers
>>> recordedmeasurement("COc1ccc(CNc2nc3cc(C(F)(F)F)ccc3nc2C(=O)O)cc1")
"19.2 µM (inactive)"
>>> recordedmeasurement("O=S(=O)(N/C(=N\\O)Nc1ccc(Cl)cc1)c1cc2ccccc2s1")
"16.6 µM (inactive)"
>>> recordedmeasurement("O=C(CN1CCN(c2ccccc2)CC1)c1ccc2[nH]c(=O)oc2c1")
"> 100 µM (inactive)"
>>> recordedmeasurement("COc1ccc(/C=c2/s/c(=C(\\C#N)c3nc4ccccc4[nH]3)n(-c3ccccc3)c2=O)cc1")
"24.7 µM (inactive)"

Asked: # query: GI50 | item CCC1CCC2c3c([nH]c4ccccc34)C3C(=O)N(c4ccc(OC)cc4)C(=O)C3C2C1 (stereo unspecified) | system: HCT-116
Given back: 20 µM (inactive)

Asked: # repeat for O=C(O)C(Cc1cccs1)C(=O)O
Given back: > 100 µM (inactive)

Asked: # repeat for C=C1C2CC[C@@](C)(O)C2[C@H]2OC(=O)C(=C)[C@@H]2C[C@H]1O (stereo partly specified)
Given back: 27 µM (inactive)

Asked: # repeat for C[S+](C)CCOC(=O)C(=[N+]=[N-])c1ccc([N+](=O)[O-])cc1
Given back: > 100 µM (inactive)

Asked: # repeat for c1cc2c(ncc3cscc32)s1
Given back: > 31.6 µM (inactive)

Asked: # repeat for Cc1nc2ccccc2cc1C[N+]12CN3CN(CN(C3)C1)C2
Given back: 5.21 µM (inactive)
